Test system: DIV14
Assay: qHTS profiling for inhibitors of Plasmodium falciparum proliferation (AID 504749); further: nearly all actives have a fitted effect of over 60% in size
Conditions: P. falciparum in erythrocytes, SYBR Green DNA, 72 h; series mostly up to 28.7 µM
Records with an inconclusive call do not appear. Activity calls are given as the source filed them. The call rests on the fitted dose curve; in most records, active means well fitted inhibition curve with a large enough effect; inconclusive means small, poorly fitted or top-dose-only effect; inactive means flat fitted curve, though single readings scatter.
Pick one: active, inactive

Example entries begin here.
OCC(CO)NC1C[C@](O)(CO)[C@@H](O)[C@H](O)[C@H]1O (some centres undefined): inactive
C/C=C\C[C@H](C)[C@H](O)[C@H]1C(=O)N[C@@H](CC)C(=O)N(C)CC(=O)N(C)[C@@H](CC(C)C)C(=O)N[C@@H](C(C)C)C(=O)N(C)[C@@H](CC(C)C)C(=O)N[C@@H](C)C(=O)N[C@@H](C)C(=O)N(C)[C@@H](CC(C)C)C(=O)N(C)[C@@H](CC(C)C)C(=O)N(C)[C@@H](C(C)C)C(=O)N1C: active
CO/N=C(/C(=O)N[C@@H]1C(=O)N2C(C(=O)O)=C(CSc3nnnn3C)CS[C@H]12)c1csc(N)n1: inactive
Nc1nc(Cl)nc2c1ncn2[C@@H]1O[C@H](CO)[C@H](O)C1F (some centres undefined): inactive

Lab note: next compound to report on.
Problem: Tell me the recorded outcome of this test for OCC1O[C@H](O[C@H]2C(O)C(O)C(O)O[C@@H]2CO)C(O)C(O)C1O (some centres undefined) .
Result: inactive

Source: PubChem BioAssay (NCATS)
